Parameter glycan array binding signal (z-score): see the listing below.
Biological target: GlcA3S(b1-3)Gal(b1-4)GlcNAc(b1-2)Man
Experiment: glycan array binding signal (z-score within array); higher = stronger binding
Settings: glycan notation: IUPAC condensed, linker removed
Only a selection was taken, and the strongest signals are over-represented in it overall.

binder	glycan array binding signal (z-score)
MPA (Maclura pomifera), P18674 (protein) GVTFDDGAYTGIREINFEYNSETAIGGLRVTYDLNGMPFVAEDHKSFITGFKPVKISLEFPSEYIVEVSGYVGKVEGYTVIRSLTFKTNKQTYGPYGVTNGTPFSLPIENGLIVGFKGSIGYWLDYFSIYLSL	-0.571
PNA (Arachis hypogaea), P02872 (protein) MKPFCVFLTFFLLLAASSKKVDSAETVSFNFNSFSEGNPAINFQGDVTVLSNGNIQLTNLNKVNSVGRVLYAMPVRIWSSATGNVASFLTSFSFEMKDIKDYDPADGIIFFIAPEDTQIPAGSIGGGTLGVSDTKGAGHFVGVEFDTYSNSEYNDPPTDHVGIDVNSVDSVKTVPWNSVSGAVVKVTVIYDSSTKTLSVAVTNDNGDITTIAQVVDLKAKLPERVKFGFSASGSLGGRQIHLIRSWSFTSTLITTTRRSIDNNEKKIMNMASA	-0.368
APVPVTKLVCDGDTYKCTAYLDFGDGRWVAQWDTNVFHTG [PhoSpL (Pholiota squarrosa)]	-0.16
Nc3LysM-2 (protein) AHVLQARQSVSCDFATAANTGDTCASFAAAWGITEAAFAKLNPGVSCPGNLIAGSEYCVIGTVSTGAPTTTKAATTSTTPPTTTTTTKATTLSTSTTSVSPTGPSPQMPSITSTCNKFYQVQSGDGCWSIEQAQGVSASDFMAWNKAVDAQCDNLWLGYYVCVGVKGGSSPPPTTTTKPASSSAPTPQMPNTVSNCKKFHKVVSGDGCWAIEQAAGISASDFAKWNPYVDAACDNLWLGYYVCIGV	0.714
Clec18A (Homo sapiens) (protein) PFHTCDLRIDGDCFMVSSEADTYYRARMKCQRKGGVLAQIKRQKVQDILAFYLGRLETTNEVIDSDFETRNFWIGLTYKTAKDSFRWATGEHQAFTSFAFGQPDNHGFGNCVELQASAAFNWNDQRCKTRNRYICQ	-0.619
Actd5 (Actinidia), P84527 (protein) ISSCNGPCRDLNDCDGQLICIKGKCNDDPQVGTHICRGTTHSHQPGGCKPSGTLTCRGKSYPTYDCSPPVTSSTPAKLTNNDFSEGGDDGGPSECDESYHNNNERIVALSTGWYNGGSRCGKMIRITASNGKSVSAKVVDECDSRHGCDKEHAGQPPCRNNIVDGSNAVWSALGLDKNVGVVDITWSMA	-0.597
ACA (Amaranthus caudatus) (protein) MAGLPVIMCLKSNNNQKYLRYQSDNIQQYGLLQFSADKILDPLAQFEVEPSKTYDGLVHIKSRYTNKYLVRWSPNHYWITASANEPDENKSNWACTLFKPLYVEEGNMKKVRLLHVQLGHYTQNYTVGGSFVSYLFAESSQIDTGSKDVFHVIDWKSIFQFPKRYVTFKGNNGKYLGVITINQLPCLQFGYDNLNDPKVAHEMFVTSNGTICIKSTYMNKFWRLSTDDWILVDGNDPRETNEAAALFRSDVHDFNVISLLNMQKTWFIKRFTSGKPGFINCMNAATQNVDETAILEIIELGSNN	-0.456
